Test system: Firefly luciferase modified at K529
method: Dual luciferase reporter (DLR) assay in E. coli whole cell lysates
Type: cell-based
measurementConditions: BocK at K529; normalized to Renilla luciferase, relative to wild-type CobB
readoutType: DLR activity [rel. to wild-type], BocK

Ask: Give the reported DLR activity [rel. to wild-type], BocK for this molecule. Decrotonylase-1: E. coli CobB mutant A37R Y53G R56T I92R V148L (protein, Decrotonylase-1, E. coli CobB mutant A37R Y53G R56T I92R V148L) KPRVLVLTGAGISAESGIRTFRAADGLWEEHRVEDVRTPEGFDRDPELVQAFGNATRRQLQQPEIQPNAAHLALAKLQDALGDRFLLVTQNRDNLHERAGNTNVIHMHGELLKVRCSQSGQVLDWTGDVTPEDKCHCCQFPAPLRPHLVWFGEMPLGMDEIYMALSMADIFIAIGTSGHVYPAAGFVHEAKLHGAHTVELNLEPSQVGNEFAEKYYGPASQVVPEFVEKLLKGLKAGSIA
Result: 0.04 rel. to wild-type

Source of measurements: patent US20200240995A1
